Target or system: mouse melanocortin-3 receptor (mouse, UniProt P33033 1-323)
Sequence (P33033 whole entry): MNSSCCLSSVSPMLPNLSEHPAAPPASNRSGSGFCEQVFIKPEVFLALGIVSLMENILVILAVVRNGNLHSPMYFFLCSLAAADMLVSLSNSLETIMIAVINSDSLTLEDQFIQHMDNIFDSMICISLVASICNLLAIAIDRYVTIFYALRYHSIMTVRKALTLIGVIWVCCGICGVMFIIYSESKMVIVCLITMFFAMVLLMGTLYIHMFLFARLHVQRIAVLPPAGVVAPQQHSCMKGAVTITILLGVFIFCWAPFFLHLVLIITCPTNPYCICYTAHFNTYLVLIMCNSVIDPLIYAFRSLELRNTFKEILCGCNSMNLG
Assay comment: cell-based or functional assay
Square brackets hold non-standard residues; d marks the D form. Bip = N[C@@H](Cc1ccc(-c2ccccc2)cc1)C(=O)O; dPhe(4-I) = N[C@H](Cc1ccc(I)cc1)C(=O)O; 2Nal = N[C@@H](Cc1ccc2ccccc2c1)C(=O)O; d2Nal = N[C@H](Cc1ccc2ccccc2c1)C(=O)O; Bta = N[C@@H](Cc1csc2ccccc12)C(=O)O
Experimental endpoint: Agonist, % of NDP-MSH maximal response (% @ 100 µM)
State just the number; it will be interpreted in % @ 100 µM.

Example results:
Ac-FR[dPhe(4-I)]F-NH2 (SMILES CC(=O)N[C@@H](Cc1ccccc1)C(=O)N[C@@H](CCCNC(=N)N)C(=O)N[C@H](Cc1ccc(I)cc1)C(=O)N[C@@H](Cc1ccccc1)C(N)=O) [SKY4-48-31, Ac-Phe-Arg-(pI)DPhe-Phe-NH2] :: 50
Ac-FR[dPhe(4-I)][2Nal]-NH2 [SKY4-48-39, Ac-Phe-Arg-(pI)DPhe-Nal(2')-NH2] :: 44
Ac-[d2Nal]R[dPhe(4-I)][d2Nal]-NH2 [SKY4-48-49, Ac-DNal(2')-Arg-(pI)DPhe-DNal(2')-NH2] :: 40
Ac-[Bip]R[dPhe(4-I)][d2Nal]-NH2 [SKY4-48-44, Ac-Bip-Arg-(pI)DPhe-DNal(2')-NH2] :: 32
Ac-HR[dPhe(4-I)][2Nal]-NH2 [SKY4-48-35, Ac-His-Arg-(pI)DPhe-Nal(2')-NH2] :: 57

Q. Returns the measured Agonist, % of NDP-MSH maximal response for the input binder. Input: Ac-[Bta]R[dPhe(4-I)][d2Nal]-NH2 [SKY4-48-45, Ac-3Bal-Arg-(pI)DPhe-DNal(2')-NH2]
A. 34

Q. Request: Ac-[d2Nal]R[dPhe(4-I)][2Nal]-NH2 [SKY5-146-5, Ac-DNal(2')-Arg-(pI)DPhe-Nal(2')-NH2]
A. 43

Q. Request: Ac-FR[dPhe(4-I)][d2Nal]-NH2 [SKY4-48-47, Ac-Phe-Arg-(pI)DPhe-DNal(2')-NH2]
A. 22

Q. Request: Ac-[2Nal]R[dPhe(4-I)][2Nal]-NH2 [SKY4-48-40, Ac-Nal(2')-Arg-(pI)DPhe-Nal(2')-NH2]
A. 39

Q. Request: Ac-RR[dPhe(4-I)][2Nal]-NH2 [SKY4-48-34, Ac-Arg-Arg-(pI)DPhe-Nal(2')-NH2]
A. 51

Q. Request: Ac-[2Nal]R[dPhe(4-I)]F-NH2 (SMILES CC(=O)N[C@@H](Cc1ccc2ccccc2c1)C(=O)N[C@@H](CCCNC(=N)N)C(=O)N[C@H](Cc1ccc(I)cc1)C(=O)N[C@@H](Cc1ccccc1)C(N)=O) [SKY4-48-32, Ac-Nal(2')-Arg-(pI)DPhe-Phe-NH2]
A. 42
